system-under-test: intact, purified human mu opioid receptor (muOPR) (Homo sapiens)
Sequence (P35372 whole entry): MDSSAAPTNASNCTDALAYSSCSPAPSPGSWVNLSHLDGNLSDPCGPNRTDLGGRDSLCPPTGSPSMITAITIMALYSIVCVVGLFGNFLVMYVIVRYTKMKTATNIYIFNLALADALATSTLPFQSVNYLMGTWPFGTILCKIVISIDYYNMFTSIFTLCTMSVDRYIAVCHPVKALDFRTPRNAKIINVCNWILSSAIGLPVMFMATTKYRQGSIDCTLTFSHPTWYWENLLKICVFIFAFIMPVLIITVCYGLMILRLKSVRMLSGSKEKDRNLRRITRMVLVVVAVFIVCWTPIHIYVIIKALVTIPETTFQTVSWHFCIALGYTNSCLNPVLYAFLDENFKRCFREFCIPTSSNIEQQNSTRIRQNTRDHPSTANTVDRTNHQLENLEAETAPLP
assay-remarks: biochemical
test-context: Kd @ 210 nm (μM), 210 nm
observable: Kd

q: I'd like to know its Kd. The compound in question is CC(=O)OCC[N+](C)(C)C
a: > 1000 µM

// data source = paper PMC5796218
